Tested on: EKVX NSCLC
Assay: NCI tumour cell line growth inhibition, 48 h
Examples of molecules with documented TGI follow.
Number in µM, nothing else.

COc1ccc2c(c1)-c1[nH]c3ccc(OC)cc3c1CC2; 20.8
Cc1ccc([N+](=O)[O-])cc1NC(=O)c1cccc([N+](=O)[O-])c1O; 72
O=C(O)C1C(C(=O)O)C23CC2(C(=O)O)C2(C(=O)O)CCC3=C3CCCC312 (stereo unspecified); 54.3
O=P(CCCCP(=O)(c1ccccc1)c1ccccc1)(c1ccccc1)c1ccccc1.[Cl][Sn]([Cl])([c]1ccccc1)[c]1ccccc1; 7.92
O=C(c1ccccc1)C(Br)C(Br)c1cccc([N+](=O)[O-])c1 (stereo unspecified); 34.5
COC(=O)C1(C(=O)OC)Cc2ccc(C)cc2C2=C1C(=O)c1ccccc1C2=O; 29.4
CC(C)c1c(O)ccc2c1CCC1C(C)(C)CCCC21C (stereo unspecified); 31.7
Cc1sc2nc(-c3ccc([N+](=O)[O-])cc3)c(/C=N/N=C(N)N)n2c1C; 2.41

Field: next molecule
Task item: Looking for the measured TGI of CC(C)COCC(CN(Cc1ccccc1)c1ccccc1)N1CCCC1 (stereo unspecified) , can you help?
Reply: 15.1

----------
Examples of molecules with documented TGI follow.
Tested on: M14 melanoma
Assay: NCI tumour cell line growth inhibition, 48 h

Field: example entries. Status: answers known.
CN1C(=O)C(c2c[nH]c3ccccc23)N(C)C(=O)C1c1c[nH]c2ccccc12 (stereo unspecified); > 100 µM
CN1CC[C@]2(C)c3cc(O)ccc3CC3CCCC1C32C (stereo partly specified); > 100 µM
CCN(CC)c1c(-c2c(N(CC)CC)c(OC(C)=O)c3sccn3c2=O)c(=O)n2ccsc2c1OC(C)=O; > 100 µM

Task item: Kindly state the measured TGI obtained for O=C1CCCC1C(O)(C(F)(F)F)C(F)(F)F (stereo unspecified) with M14 melanoma.
Reply: > 100 µM

Task item: Likewise for CCN(CC)CCn1c2ccccc2c(=O)c2c(O)ccc(O)c21 ?
Reply: 63.6 µM

Task item: Likewise for CCCCCCCCCCCCCCCCOCC(CP(=O)([O-])OCC[n+]1ccccc1)OC (stereo unspecified) ?
Reply: 17.9 µM

----------
Test system: SR leukemia
Assay: NCI tumour cell line growth inhibition, 48 h
PARAMETER: TGI

Field: example entries. Status: answers known.
O=C(O)CCSC(=O)Nc1ccccc1F; > 100 µM
c1ccc2c(c1)cc1c3[nH]c4ccccc4c3ccn21; > 10 µM
C[N+]1(C)C/C(=C\c2ccccc2)C(=O)/C(=C/c2ccccc2)C1; > 100 µM
Nc1nc2n[nH]nc2c(=O)[nH]1; 20.4 µM
COc1ccc(/C(=N\O)c2cc(C)c(OC)c(C)c2)cc1O; > 100 µM

Task item: Kindly state the measured TGI obtained for COc1ccc(C2=NN(C(N)=S)C(c3ccccc3)C2)cc1 (stereo not given) with SR leukemia.
Reply: 77.3 µM

Task item: Likewise for S=c1ssc(Oc2ccccc2)c1Cl ?
Reply: > 100 µM

Task item: Likewise for C=CC[C@@]1([C@H](C=C)COCc2ccc(OC)cc2)CC[C@]2(C)OC(C)(C)[C@@H](c3ccccc3)N2C1=S ?
Reply: > 100 µM

Task item: Likewise for CCOc1cc2c(cc1O)CC[C@@H]1[C@@H]2CC[C@]2(C)C(N)CC[C@@H]12 (stereo not given in full) ?
Reply: 7 µM

Task item: Likewise for C=C1C(=O)O[C@H]2[C@H]1CCC(/C=N/c1ncc(Br)cc1N)=C\CC[C@@]1(C)O[C@@H]21 ?
Reply: 7.68 µM

Task item: Likewise for CC(=O)N(C(C)=O)n1c(-c2ccccc2)n[nH]c1=O ?
Reply: > 100 µM

Task item: Likewise for COc1cc(-n2cc(-c3ccc(Cl)cc3)nc2SCc2cccc(C#N)c2)cc(OC)c1OC ?
Reply: > 100 µM

Task item: Likewise for C[N+]1(Cc2ccc(Cl)c(Cl)c2)CCCC1C1CCCN(Cc2ccc(Cl)c(Cl)c2)C1 (stereo not given) ?
Reply: > 100 µM

Task item: Likewise for Cc1cc(NS(=O)(=O)c2ccc(NC(=O)c3ccc(Cl)c4c(Nc5ccc(S(=O)(=O)N=C(N)N)cc5)c5ccccc5nc34)cc2)no1 ?
Reply: 67.9 µM

----------
System: SW-620 colon
Test: NCI tumour cell line growth inhibition, 48 h; in the data active means GI50 below about 0.43 µM; inactive means the rest
Bench note: report the call from y (active), n (inactive)

// below: answered molecules
COc1ccc(/C(=N\O)c2cc(C)c(OC)c(C)c2)cc1O; y
COc1cc(-n2cc(-c3ccc(Cl)cc3)nc2SCc2cccc(C#N)c2)cc(OC)c1OC; n
COc1cc(/C=C/C(=O)c2c(C)nc3ccccc3c2/C=C/c2ccc(C)cc2)cc(OC)c1OC; n
COc1cc(/C=N/NC(=O)c2cnn3c2NC(c2ccccc2)C3)ccc1Oc1ccccc1 (stereo not drawn); n
COc1ccc(S(=O)(=O)Nc2cc(/C=C\c3cc(OC)c(OC)c(OC)c3)ccc2OC)cc1; y
Cc1cc(NCc2cc(Nc3ccnc4cc(Cl)ccc34)ccc2F)nc(N2CCN(C)CC2)n1; n
N#CC1=C(N)Oc2c(sc3c(Br)cccc23)C1c1ccc(Br)cc1 (stereo not drawn); n
OC(CNCC1CCCO1)Cn1c2ccc(Cl)cc2c2cc(Cl)ccc21 (stereo not drawn); n

Task item: Check the results log: what was the call for S=c1ssc(Oc2ccccc2)c1Cl ?
Reply: n

Task item: Likewise for CC[C@@]1(OC(=O)CN)C(=O)OCc2c1cc1n(c2=O)Cc2cc3c(N)cccc3nc2-1 ?
Reply: y

----------
System: SN12C renal
Test: NCI tumour cell line growth inhibition, 48 h
PARAMETER: TGI

O=C(O)CCSC(=O)Nc1ccccc1F; > 100 µM
COc1ccc(CC(=O)NCCc2ccc(OC)c(OC)c2)cc1Br; > 100 µM
CCN1Cc2c(ccc(F)c2C#N)O[C@@H](C)CNC(=O)c2c(N)nn3ccc1nc23; 18.5 µM
C/C(=N\NC(=O)c1ccncc1)c1ccccc1F; > 10 µM
CC1=NN(C(=O)CC(=O)Nc2ccc(C)cc2)C(=O)C1N=Nc1ccc(S(=O)(=O)c2ccc(N=NC3C(=O)N(C(=O)CC(=O)Nc4ccc(C)cc4)N=C3C)cc2)cc1 (stereo not given); > 100 µM

Task item: Looking for the measured TGI of Cc1c(C(=O)CC(=O)C(=O)Nc2ccc(Cl)cc2)[n+](=O)c2ccccc2n1[O-] , can you help?
Reply: > 100 µM

Task item: Likewise for CC(=O)OCC(=O)[C@@]12OC(C)(C)O[C@@H]1C[C@H]1[C@@H]3CC=C4C[C@@H](O)CC[C@]4(C)[C@H]3CC[C@@]12C ?
Reply: > 100 µM

Task item: Likewise for COc1ccc(NC(=O)/C(=N/NC(N)=S)C2C(=O)NC(=S)NC2=O)c(OC)c1 ?
Reply: > 100 µM

----------
Examples of molecules with documented TGI follow.
Test system: SNB-19 CNS
Assay: NCI tumour cell line growth inhibition, 48 h

Field: example entries. Status: answers known.
COc1ccc(/C(=N\O)c2cc(C)c(OC)c(C)c2)cc1O; > 100 µM
Clc1ccc2nnnn2n1; > 100 µM
CC1(O)CC(c2nc(-c3ccc4ccc(-c5ccccc5)nc4c3)c3c(N)nccn23)C1 (stereo unspecified); > 100 µM
O=C1CCCC1C(O)(C(F)(F)F)C(F)(F)F (stereo unspecified); > 100 µM
CC(O)c1ccc[n+](Cc2ccccc2)c1 (stereo unspecified); > 400 µM

Field: next molecule
Task item: Looking for the measured TGI of Cc1cc2[nH]c(=O)c3c4ccccc4cn3c2cc1C , can you help?
Reply: 36.7 µM

----------
System: U251 CNS
Experiment: NCI tumour cell line growth inhibition, 48 h
Examples of molecules with documented TGI follow.

Field: example entries. Status: answers known.
c1ccc2c(c1)cc1c3[nH]c4ccccc4c3ccn21; > 10 µM
O=C1C2C=CC(C2)C(c2ccc(O)cc2)N1O (stereo unspecified); > 100 µM
CN1CC[C@]2(C)c3cc(O)ccc3CC3CCCC1C32C (stereo partly specified); > 100 µM
CC(=O)N(C(C)=O)n1c(-c2ccccc2)n[nH]c1=O; > 100 µM
COc1cc(-n2cc(-c3ccc(Cl)cc3)nc2SCc2cccc(C#N)c2)cc(OC)c1OC; > 100 µM
Cc1ccc(/C=C2\CN(C)CC3C2=NN(c2ccccc2)C3c2ccc(C)cc2)cc1 (stereo unspecified); > 100 µM
CC(=O)C(CN(Cc1ccccc1)Cc1ccccc1)C(c1ccccc1)c1c(O)c2ccccc2oc1=O (stereo unspecified); > 100 µM
Cc1cc2nc(N3C(=O)/C(=C/c4ccccc4S)N=C3c3ccccc3)sc2cc1C; > 100 µM
O=c1[nH]c(=O)c2cc(C3CC(O)C(CO)O3)ccc2[nH]1 (stereo unspecified); > 100 µM
CCN(CC)c1c(-c2c(N(CC)CC)c(OC(C)=O)c3sccn3c2=O)c(=O)n2ccsc2c1OC(C)=O; > 100 µM

Field: next molecule
Task item: Looking for the measured TGI of COC(=O)NC12CC3CC(CC(F)(C3)C1)C2 , can you help?
Reply: > 100 µM
